Data origin, for the record: paper PMC7582656

- Test system: B. subtilis 168HT
- Assay type: cell-based, Bacillus subtilis
- applied_conditions: 168HT
Where no end group is shown, it is not given here.
Checkbox rule: MIC lower than 10 µM = fulfilled; MIC not lower than 10 µM = not fulfilled.

>  <substance>
FLIGKAIKRKFCLRSVWNA-NH2 [pept_1545]

>  <target_desc>
B. subtilis 168HT

>  <assigned_label>
fulfilled

$$$$
>  <substance>
IVKRFFRISYKLQSLKIIKGKRTFT [pept_84]

>  <target_desc>
B. subtilis 168HT

>  <assigned_label>
fulfilled

$$$$
>  <substance>
FVKILAKLVNYAKN [pept_970]

>  <target_desc>
B. subtilis 168HT

>  <assigned_label>
not fulfilled

$$$$
>  <substance>
IGRHFKRRNSIWGICWF [pept_1303]

>  <target_desc>
B. subtilis 168HT

>  <assigned_label>
not fulfilled

$$$$
>  <substance>
VLIRGLIHMLRGG [pept_148]

>  <target_desc>
B. subtilis 168HT

>  <assigned_label>
not fulfilled

$$$$
